Taken from patent US20220048991A1.

- measured-on: T1, recombinant ILT2 (human) (human, UniProt Q8NHL6 24-461)
- T1 construct: also called recombinant ILT2 peptide; ILT2 protein
- protocol-details: SPR (Biacore T200), HEK EBNA supernatants on recombinant ILT2 peptide
Below, each entry is listed alongside its reported kon.
measured-attribute: kon (M⁻¹ s⁻¹)

binder: humanized 15G8 VH1/Vk1 (antibody, IgG4, V domains shown, Humanized IgG4 (S228P, L235E), kappa; tested as supernatant of transiently transfected HEK EBNA cells) VH: DVQLQGSGPGLVKPSETLSLTCSVTGYSITSGYYWNWIRQFPGKKLEWMGYISYDGSNNYNPSLKNRITISRDTSKNQFSLKLNSVTAADTATYYCAHGYSYYYAMDAWGQGTSVTVSS VL: DIQMTQSTSSLSASVGDRVTITCRTSQDISNYLNWYQQKPGKAVKLLISYTSRLHSGVPSRFSGSGSGTDYTLTISSLQQEDFATYFCQQGNTLPTFGQGTKLEIK
unit-label: M⁻¹ s⁻¹
numeric-value: 1.06e+06
//
binder: humanized 15G8 VH2/Vk4 (antibody, IgG4, V domains shown, Humanized IgG4 (S228P, L235E), kappa; tested as supernatant of transiently transfected HEK EBNA cells) VH: DVQLQGSGPGLVKPSETLSLTCSVTGYSITSGYYWNWIRQFPGKKLEWMGYISYDGSNNYNPSLKNRITISRDTSKNQFSLKLSSVTAADTATYYCAHGYSYYYAMDAWGQGTTVTVSS VL: DIQMTQSPSSLSASVGDRVTITCRTSQDISNYLNWYQQKPGKAPKLLISYTSRLHSGVPSRFSGSGSGTDYTLTISSLQPEDFATYFCQQGNTLPTFGQGTKLEIK
unit-label: M⁻¹ s⁻¹
numeric-value: 554000
//
binder: humanized 15G8 VH3/Vk1 (antibody, IgG4, V domains shown, Humanized IgG4 (S228P, L235E), kappa; tested as supernatant of transiently transfected HEK EBNA cells) VH: DVQLQGSGPGLVKPSETLSLTCSVTGYSITSGYYWNWIRQPPGKGLEWMGYISYDGSNNYNPSLKNRITISRDTSKNQFSLKLSSVTAADTATYYCAHGYSYYYAMDAWGQGTTVTVSS VL: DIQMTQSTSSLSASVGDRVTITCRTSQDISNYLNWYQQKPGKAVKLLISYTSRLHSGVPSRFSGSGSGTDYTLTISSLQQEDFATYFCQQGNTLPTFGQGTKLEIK
unit-label: M⁻¹ s⁻¹
numeric-value: 799000
